Consider the following compounds and their measured pIC50 readings.
experiment: Anti-proliferation IC50, MRC-5; assay type: cell-based; conditions: human, MRC-5 cells; Table 1, compounds of formula I; NI = no inhibition up to 500 μM
pIC50: −log10 of the molar value. Structures can show the parent of a compound that is named as a salt.

>  <COMPOUND>
CC[C@H]1OC(=O)[C@H](C)[C@@H](O[C@H]2C[C@@](C)(OC)[C@@H](O)[C@H](C)O2)[C@H](C)[C@@H](O[C@@H]2O[C@H](C)C[C@H](N(C)C)[C@H]2O)[C@](C)(OC)C[C@@H](C)C(=O)[C@H](C)[C@@H](O)[C@]1(C)O [Clarithromycin (CLM), Clarithromycin, reference compound]

>  <pIC50>
3.86

$$$$
>  <COMPOUND>
COC(=O)/C=C/C(=O)OC [Dimethyl Fumarate, reference compound]

>  <pIC50>
3.59

$$$$
>  <COMPOUND>
CC[C@H]1OC(=O)[C@H](C)[C@@H](O[C@H]2C[C@@](C)(OC)[C@@H](O)[C@H](C)O2)[C@H](C)[C@@H](O[C@@H]2O[C@H](C)C[C@H](N(C)C)[C@H]2O)[C@](C)(O)C[C@@H](C)CN(C)[C@H](C)[C@@H](O)[C@]1(C)O [Azithromycin (AZM), Azithromycin, reference compound]

>  <pIC50>
3.90

$$$$
>  <COMPOUND>
CCC1OC(=O)[C@H](C)[C@H](OC2C[C@@](C)(OC)[C@@H](O)[C@H](C)O2)[C@H](C)[C@@H](OC2O[C@H](C)C[C@H](N(C)CCCC#Cc3ccc(-n4cc(C)ccc4=O)cc3)[C@H]2O)[C@@](C)(OC)C[C@@H](C)C(=O)[C@H](C)[C@@H](O)[C@]1(C)O (some centres unmarked) [Compound 19c]

>  <pIC50>
4.82

$$$$
>  <COMPOUND>
CCC1OC(=O)[C@H](C)[C@H](OC2C[C@@](C)(OC)[C@@H](O)[C@H](C)O2)[C@H](C)[C@@H](OC2O[C@H](C)C[C@H](N(C)Cc3cn(CCCCc4ccc(-n5cc(C)ccc5=O)cc4)nn3)[C@H]2O)[C@@](C)(OC)C[C@@H](C)C(=O)[C@H](C)[C@@H](O)[C@]1(C)O (some centres unmarked) [Compound 14b]

>  <pIC50>
4.48

$$$$
>  <COMPOUND>
CCC1OC(=O)[C@H](C)[C@H](OC2C[C@@](C)(OC)[C@@H](O)[C@H](C)O2)[C@H](C)[C@@H](OC2O[C@H](C)C[C@H](N(C)Cc3ccc(-c4cn(CCc5ccc(-n6cc(C)ccc6=O)cc5)nn4)cc3)[C@H]2O)[C@@](C)(OC)C[C@@H](C)C(=O)[C@H](C)[C@@H](O)[C@]1(C)O (some centres unmarked) [Compound 12c]

>  <pIC50>
4.88

$$$$
>  <COMPOUND>
CCC1OC(=O)[C@H](C)[C@H](OC2C[C@@](C)(OC)[C@@H](O)[C@H](C)O2)[C@H](C)[C@@H](OC2O[C@H](C)C[C@H](N(C)CCCCCC#Cc3ccc(-n4cc(C)ccc4=O)cc3)[C@H]2O)[C@@](C)(OC)C[C@@H](C)C(=O)[C@H](C)[C@@H](O)[C@]1(C)O (some centres unmarked) [Compound 19e]

>  <pIC50>
4.62

$$$$
>  <COMPOUND>
CC[C@H]1OC(=O)[C@@H](C)[C@@H](O[C@@H]2C[C@](C)(OC)[C@H](O)[C@@H](C)O2)[C@@H](C)[C@@H](O[C@H]2O[C@@H](C)C[C@@H](N(C)C)[C@@H]2OC(=O)/C=C/C=C/c2ccc3c(c2)OCO3)[C@](C)(OC)C[C@@H](C)C(=O)[C@H](C)[C@H](O)[C@]1(C)O

>  <pIC50>
5.11

$$$$
>  <COMPOUND>
CCC1OC(=O)[C@H](C)[C@H](OC2C[C@@](C)(OC)[C@@H](O)[C@H](C)O2)[C@H](C)[C@@H](OC2O[C@H](C)C[C@H](N(C)CCCCc3ccc(-n4cc(C)ccc4=O)cc3)[C@H]2O)[C@@](C)(OC)C[C@@H](C)C(=O)[C@H](C)[C@@H](O)[C@]1(C)O (some centres unmarked) [Compound 14a]

>  <pIC50>
4.80

$$$$
>  <COMPOUND>
CC[C@H]1OC(=O)[C@@H](C)[C@@H](O[C@H]2C[C@@](C)(OC)[C@@H](O)[C@H](C)O2)[C@@H](C)[C@@H](O[C@H]2O[C@@H](C)C[C@@H](N(C)C)[C@@H]2OC(=O)/C=C/C(=O)OC)[C@](C)(OC)C[C@@H](C)C(=O)[C@H](C)[C@H](O)[C@]1(C)O

>  <pIC50>
4.05

$$$$
>  <COMPOUND>
Cc1ccc(=O)n(-c2ccccc2)c1 [Pirfenidone (Pir), Pirfenidone, reference compound]

>  <pIC50>
2.28

$$$$
>  <COMPOUND>
CCC1OC(=O)[C@H](C)[C@H](OC2C[C@@](C)(OC)[C@@H](O)[C@H](C)O2)[C@H](C)[C@@H](OC2O[C@H](C)C[C@H](N(C)CCc3ccc(-n4cc(C)ccc4=O)cc3)[C@H]2O)[C@@](C)(OC)C[C@@H](C)C(=O)[C@H](C)[C@@H](O)[C@]1(C)O (some centres unmarked) [Compound 12a]

>  <pIC50>
3.92

$$$$
>  <COMPOUND>
CCC1OC(=O)[C@H](C)[C@H](OC2C[C@@](C)(OC)[C@@H](O)[C@H](C)O2)[C@H](C)[C@@H](OC2O[C@H](C)C[C@H](N(C)Cc3ccc(-c4cn(CCCCc5ccc(-n6cc(C)ccc6=O)cc5)nn4)cc3)[C@H]2O)[C@@](C)(OC)C[C@@H](C)C(=O)[C@H](C)[C@@H](O)[C@]1(C)O (some centres unmarked) [Compound 14c]

>  <pIC50>
4.94

$$$$
>  <COMPOUND>
CC[C@H]1OC(=O)[C@@H](C)[C@@H](O[C@@H]2C[C@](C)(OC)[C@H](O)[C@@H](C)O2)[C@@H](C)[C@@H](O[C@H]2O[C@@H](C)C[C@@H](N(C)C)[C@@H]2OC(=O)CCCC[C@H]2CCSS2)[C@](C)(OC)C[C@@H](C)C(=O)[C@H](C)[C@H](O)[C@]1(C)O

>  <pIC50>
4.35

$$$$
